Below, each of the molecules is paired with its reported log10 of Kd value.
# TESTED_TARGET: UDP-3-O-acyl-N-acetylglucosamine deacetylase (Aquifex aeolicus (strain VF5), UniProt O67648)
# TEST_SUMMARY: OctetRed
# CONDITION_LABEL: pH 7; 25 °C
Heads up: the numbers are on a log10 scale; they represent Kd in nM.

These solved cases illustrate the format of a correct answer.
O=C(NO)[C@H]1COC(c2ccc(F)c(C(F)(F)F)c2)=N1 | 2.65
NC[C@H](NC(=O)c1ccc(-c2ccc(Br)cc2)cc1)C(=O)NO | 1.46
NC[C@H](NC(=O)c1ccc(-c2ccccc2)cc1)C(=O)NO | 2.16

Could you now consider this next molecule?
*Q* Reported log10 of Kd, molecule "O=C(NO)[C@H]1COC(c2cc3cc(F)ccc3[nH]2)=N1" : ____
*A* 2.89

----------
# TESTED_TARGET: UDP-3-O-acyl-N-acetylglucosamine deacetylase (Aquifex aeolicus (strain VF5))
# TEST_SUMMARY: OctetRed
# CONDITION_LABEL: pH 7; 25 °C
Below, each of the compounds is paired with its reported Ki value.
Kindly answer with a numeric value in nM, unit omitted.

NC[C@H](NC(=O)c1ccc(C#CC#Cc2ccccc2)cc1)C(=O)NO | 10
C[C@@H](O)[C@H](NC(=O)c1ccc(C#CC#Cc2ccccc2)cc1)C(=O)NO | 1
C[C@@H](O)[C@H](NC(=O)c1ccc(-c2ccc(Br)cc2)cc1)C(=O)NO | 1

*Q* Reported Ki, compound "C[C@@H](O)[C@H](NC(=O)c1ccc(C#Cc2ccccc2)cc1)C(=O)NO" : ____
*A* 1

----------
Below, each of the compounds is paired with its reported Kd value.
# TESTED_TARGET: UDP-3-O-acyl-N-acetylglucosamine deacetylase (Aquifex aeolicus (strain VF5), UniProt O67648)
# Sequence (O67648 whole entry): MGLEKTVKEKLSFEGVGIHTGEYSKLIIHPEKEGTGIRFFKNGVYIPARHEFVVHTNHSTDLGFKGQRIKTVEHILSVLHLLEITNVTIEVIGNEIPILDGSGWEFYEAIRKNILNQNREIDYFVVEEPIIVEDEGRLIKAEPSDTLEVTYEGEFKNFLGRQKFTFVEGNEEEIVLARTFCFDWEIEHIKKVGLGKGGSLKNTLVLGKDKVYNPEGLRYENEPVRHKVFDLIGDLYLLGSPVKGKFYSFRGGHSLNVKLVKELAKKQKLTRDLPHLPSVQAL
# TEST_SUMMARY: OctetRed
# CONDITION_LABEL: pH 7; 25 °C
Kindly answer with a numeric value in nM, unit omitted.

*Q* Reported Kd, compound O=C(NO)[C@H]1COC(c2ccc(OC(F)(F)F)c(Cl)c2)=N1 [CS270] : ____
*A* 744

*Q* Reported Kd, compound CCCc1ccc(-c2ccc(C3=N[C@@H](C(=O)NO)CO3)cc2)cc1 [CS274] : ____
*A* 415

*Q* Reported Kd, compound C[C@@H](O)[C@H](NC(=O)c1ccc(-c2ccccc2)cc1)C(=O)NO [CS263] : ____
*A* 14

*Q* Reported Kd, compound O=C(NO)c1csc(-c2ccc(OC(F)(F)F)c(Cl)c2)n1 [CS275] : ____
*A* 1820
